# PROTOCOL_SUMMARY: Antibacterial activity against five Gram-negative bacteria
# Format: functional
# SETUP_CONDITIONS: read-out: MIC
MEASURE_NAME: MIC (µg/mL)
Report as a plain number; the unit µg/mL is understood.

Note down MIC recorded for O=C(O)c1cn(C2CC2)c2c(F)c(N3CCCC3)c(F)cc2c1=O
0.1

Answer with the recorded MIC for the compound listed here: Cc1c(F)c(N2CCC(N)C2)c(F)c2c1c(=O)c(C(=O)O)cn2C1CC1 (stereo not given)
0.02

Output MIC of CCc1c(F)c(N2CCC(N)C2)cc2c1c(=O)c(C(=O)O)cn2C1CC1 (stereo not given)
1.81

Identify MIC associated with the compound COc1c(N2CCC(C)(N)C2)c(F)cc2c(=O)c(C(=O)O)cn(-c3ccc(F)cc3F)c12 (stereo not given)
0.46

Please indicate MIC recorded for NC1CCN(c2c(F)cc3c(=O)c(C(=O)O)cn(-c4ccc(F)cc4F)c3c2C(F)(F)F)C1 (stereo not given)
0.52

Tell me measured MIC for CCNCC1CCN(c2c(F)cc3c(=O)c(C(=O)O)cn(NC)c3c2F)C1 (stereo not given) please.
0.26

Identify measured MIC associated with NC1CCCN(c2nc3c(cc2F)c(=O)c(C(=O)O)cn3C2CC2)C1 (stereo not given)
0.4

Given O=C(O)c1cn(C2CC2)c2cc(N3CCNCC3)c(F)cc2c1=O [CIPROFLOXACIN] , respond with its MIC.
0.1

Indicate its recorded MIC; the compound in question is NCC1CCN(c2nc3c(cc2F)c(=O)c(C(=O)O)cn3C2CC2)C1 (stereo not given)
0.14

Name the recorded MIC of the compound listed here: NC1CCN(c2c(F)cc3c(=O)c(C(=O)O)cn(C4CC4)c3c2[N+](=O)[O-])C1 (stereo not given)
0.46
